- Tested on: ALK (basal phosphorylation in NB1 cells)
- assay protocol: Western blot of ALK phosphorylation in NB1 cells
- Assay type: cell-based, human
- study conditions: effect in words
- Protocol: Lysed cells were subjected to SDS-PAGE, transferred to nitrocellulose and immunoblotted with antibodies against total, and phospho-specific ALK, AKT, and MAPK. FIG. 4B depicts an ELISA of NB1 cells grown in media with reduced serum and treated with 30-100 nM of each antibody for 1-2 hours. […] Anti-ALK monoclonal antibodies generated in Example 1 were evaluated via Western blotting for their ability to activate or inhibit basal levels of ALK phosphorylation in NB1 cells (FIG. 4A). […]
readout: ALK phosphorylation

[
  {
    "molecule": "Ab326: anti-ALK monoclonal antibody; VL SEQ ID NO: 407, VH SEQ ID NO: 408 (antibody, V domains shown, VH domain - Ab326; VL domain - Ab326) VH: QVQLQQSGAELAKPGASVKLSCKASGYTFTSYWMHWVKQRPGQGLEWIGYIKPSSGYTKYNQKFKDKATLTADKSSSTAYMQLSSLTYEDSAVYYCARDYYGSSSWFAYWGQGTLVTVSA VL: DIVMTQSQRFMSTSVGDRVSVTCKASQNVGTNVAWYQQKPGQSPKALIYSASYRYSGVPDRFTGSGSGTDFTLTISNVQSEDLAEYFCQQYNSYPYMYTFGGGTKLEIKR",
    "value measured": "inhibitor"
  },
  {
    "molecule": "Ab330: anti-ALK monoclonal antibody; VL SEQ ID NO: 415, VH SEQ ID NO: 416 (antibody, V domains shown, VH domain - Ab330; VL domain - Ab330) VH: EVQVVETGGGVVQPGKSLEITCATSGLTFSTAWMYWVRQSSDRRLEWIARIKDKSNKFASDYVESVRGRFTISRDDSRSSVYLQMNNLKEEDTATYYCTTSYGYAWGQGVMVTVSS VL: DIQMTQSPSSMSASLGDRVTITCQASQDIGNYLIWFQQKPGKSPRPLIYYATNLANGVPSRFSGSRSGSEYSLTITSLESEDMADYHCLQYKQHLTFGSGTKLEIER",
    "value measured": "inhibitor"
  },
  {
    "molecule": "Ab332: anti-ALK monoclonal antibody; VL SEQ ID NO: 419, VH SEQ ID NO: 420 (antibody, V domains shown, VH domain - Ab332; VL domain - Ab332) VH: EVQLQQSGPELVKPGTSVKISCKASGYTFTDYYMNWMKQSHGKSLEWIGDINPNNGVTSYNQKFKGKATLTVDKSSSTAYMELRSLTSEDSAVYYCAREDYGSNYFDYWGQGTTLTVSS VL: DIVLTQSPASLAVSLGQRATISCKASQSVDYDGDSYMNWYQQKPGQPPKLLIYAASNLESGIPARLSGSGSGTDFTLNIHPVEEEDAATYYCQQSNEDPPTFGGGTKLEIRR",
    "value measured": "weak agonist"
  },
  {
    "molecule": "Ab322: anti-ALK monoclonal antibody; VL SEQ ID NO: 399, VH SEQ ID NO: 400 (antibody, V domains shown, VH domain - Ab322; VL domain - Ab322) VH: QVQLQQSGAELAKPGASVKLSCKASGYTFTNYWMHWVKQRPGQGLEWIGYINPSSGYTKYNQKFKDKATLTADKSSSTAYMQLSSLTYEDSAVYYCARDYYGSSSWFAYWGQGTLVTVSA VL: DIVMTQSQRFMSTSVGDRVSVTCKASQNVGTNVAWYQQKPGQSPKALIYSASYRYSGVPDRFTGSGSGTDFTLTVSNVQSEDLAEYFCQQYNSYPYMYTFGGGTKLEIKR",
    "value measured": "inhibitor"
  },
  {
    "molecule": "Ab323: anti-ALK monoclonal antibody; VL SEQ ID NO: 401, VH SEQ ID NO: 402 (antibody, V domains shown, VH domain - Ab323; VL domain - Ab323) VH: QVQLQQSGAELVKPGASVKISCKTSGYTFSNYWMNWVKQRPGKGLEWIGQIFPGDADANYNGKFKGKATLTADKSSSAAFMQLSSLTSEDSAVYFCARFSYDGAFAYWGQGTLVTVS VL: DIVMTQSHKFMSTSVGDRVSITCKASQDVSTAVAWYQQKPGQSPKPLIYWASTRHTGVPDRFTGSGSGTDYTLTISSVQTEDLALYYCQQHYSTPRTFGGGTKLEIKR",
    "value measured": "weak agonist"
  },
  {
    "molecule": "Ab331: anti-ALK monoclonal antibody; VL SEQ ID NO: 417, VH SEQ ID NO: 418 (antibody, V domains shown, VH domain - Ab331; VL domain - Ab331) VH: EVQVVETGGGVVQPGKSLEITCATSGLTFSTAWMYWVRQSSDRRLEWIARIKDKSNNFASDYVESVRGRFTISRDDSRSSVYLQMNNLKEEDTATYYCTTSYGYAWGQGVMVTVSS VL: DIQMTQSPSSMSASLGDRITITCQASQDIGNYLIWFQQKPGKSPRPLIYYATNLANGVPSRFSGSRSGSEYSLTITSLESEDMADYHCLQYKQHLTFGSGTKLEIER",
    "value measured": "inhibitor"
  }
]
